# System: Myzus persicae
# Procedure Details: Insecticidal activity against Myzus persicae (green peach aphid) at 600 g ai/ha
# Assay type: functional
Endpoint Label: Activity (%)
Use % as the unit, but write only the number.

[[record]]
compound = "COC(=O)c1sc(C)nc1-c1ccc(OC)c(OC)c1"
result_number = 0

[[record]]
compound = "C#CC(C)(C)NC(=O)c1sc(C)nc1-c1ccc(OC)c(OC)c1"
result_number = 60

[[record]]
compound = "CCN(C)C(=O)c1sc(C)nc1-c1ccc(OC)c(OC)c1"
result_number = 40

[[record]]
compound = "C#CC(C)(CC)NC(=O)c1sc(C)nc1-c1ccc(OC)c(OC)c1 (centres undefined)"
result_number = 20

[[record]]
compound = "COc1ccc(-c2nc(C)sc2C(=O)O)cc1OC"
result_number = 0


Field request: Activity | item: COc1ccc(-c2nc(C)sc2C(=O)N2CCOCC2)cc1OC
20

Field request: Activity | item: COc1ccc(-c2nc(C)sc2C(=O)NCC#N)cc1OC
0

Field request: Activity | item: COc1ccc(-c2nc(C)sc2C(N)=O)cc1OC
0

Field request: Activity | item: CCN(CC)C(=O)c1sc(C)nc1-c1ccc(OC)c(OC)c1
0

Field request: Activity | item: COc1ccc(-c2nc(C)sc2C(=O)NCCCn2ccnc2)cc1OC
0

Field request: Activity | item: COc1ccc(-c2nc(C)sc2C(=O)OCC(C)C)cc1OC
20

Field request: Activity | item: COc1ccc(-c2nc(C)sc2C(=O)N(C)OC)cc1OC
20

Field request: Activity | item: C#CCOC(=O)c1sc(C)nc1-c1ccc(OC)c(OC)c1
20

Field request: Activity | item: COc1ccc(-c2nc(C)sc2C(=O)Nc2ccccc2)cc1OC
20
